target_system: T1, human LILRA1 (human, UniProt O75019 17-489)
T1 construct: Over-expressed on CHO-s cells; also called hLILRA1
T1 sequence (O75019 17-489 limits assumed): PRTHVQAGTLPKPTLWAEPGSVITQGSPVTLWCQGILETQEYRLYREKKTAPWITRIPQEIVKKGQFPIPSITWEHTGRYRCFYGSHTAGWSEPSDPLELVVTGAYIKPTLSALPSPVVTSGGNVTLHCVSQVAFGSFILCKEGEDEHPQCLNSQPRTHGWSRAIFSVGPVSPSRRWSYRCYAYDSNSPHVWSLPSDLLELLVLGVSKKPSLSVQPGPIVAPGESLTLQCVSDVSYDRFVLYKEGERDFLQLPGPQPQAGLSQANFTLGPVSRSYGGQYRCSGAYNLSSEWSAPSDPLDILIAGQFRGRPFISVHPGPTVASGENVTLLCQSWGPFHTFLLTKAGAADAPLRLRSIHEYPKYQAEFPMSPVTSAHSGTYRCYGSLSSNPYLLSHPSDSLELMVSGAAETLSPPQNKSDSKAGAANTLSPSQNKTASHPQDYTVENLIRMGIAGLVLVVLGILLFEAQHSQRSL
run_description: flow cytometry, LILRA1 CHOs

binder	binding result
J-19.h4 (antibody, human IgG4 S228P, kappa, V domains shown, Humanized, human IgG4 backbone) VH: QVTLKESGPALVKPTHTLTLTCTFSGFSLNTYAMGVSWIRQPPGKALEWLASIWWNGNKYNNPSLKSRLTISKDTSKNQVVLTMTNMDPEDTATFYCAHSRIIRFTDYVMDAWGRGTTVTVSS VL: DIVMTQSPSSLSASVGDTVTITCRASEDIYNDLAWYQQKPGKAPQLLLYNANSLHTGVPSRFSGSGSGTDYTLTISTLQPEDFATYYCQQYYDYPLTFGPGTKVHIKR	no binding
J-19.h3 (antibody, human IgG4 S228P, kappa, V domains shown, Humanized, human IgG4 backbone) VH: QVTLKESGPSLVKPTQTLTLTCTFSGFSLNTYAMGVSWIRQPPGKALEWLASIWWNGNKYNNPSLKSRLTITKDTSKNQVVLKVTNMDPADTATYYCAHSRIIRFTDYVMDAWGQGTTVTVSS VL: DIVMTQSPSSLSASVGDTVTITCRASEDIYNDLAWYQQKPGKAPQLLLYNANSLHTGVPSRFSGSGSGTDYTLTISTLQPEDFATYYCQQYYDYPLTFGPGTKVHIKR	no binding
J-19.h1 (antibody, human IgG4 S228P, kappa, V domains shown, Humanized, human IgG4 backbone) VH: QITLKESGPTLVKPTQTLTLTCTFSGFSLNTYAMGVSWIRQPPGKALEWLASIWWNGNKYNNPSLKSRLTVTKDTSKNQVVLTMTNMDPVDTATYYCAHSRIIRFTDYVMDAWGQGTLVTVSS VL: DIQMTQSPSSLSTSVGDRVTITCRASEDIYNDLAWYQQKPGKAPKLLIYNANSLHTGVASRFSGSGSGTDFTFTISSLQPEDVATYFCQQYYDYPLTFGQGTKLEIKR	no binding
J-19.h2 (antibody, human IgG4 S228P, kappa, V domains shown, Humanized, human IgG4 backbone) VH: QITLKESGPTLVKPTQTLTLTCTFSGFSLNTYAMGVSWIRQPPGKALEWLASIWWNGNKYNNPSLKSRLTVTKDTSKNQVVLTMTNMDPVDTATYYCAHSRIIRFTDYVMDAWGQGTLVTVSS VL: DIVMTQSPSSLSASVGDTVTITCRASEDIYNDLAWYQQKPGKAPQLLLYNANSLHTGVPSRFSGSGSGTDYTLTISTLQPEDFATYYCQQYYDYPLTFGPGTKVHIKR	no binding
